- System: Hs-578T
- TEST_NAME: NCI tumour cell line growth inhibition, 48 h
Activity calls are given as the source filed them. Rule as the data show it: active = GI50 up to about 1.1 µM and inactive = higher.
// values below are reported GI50

Examples with answers:
MOLECULE	SYSTEM_NAME	GI50
C=C1COC(O)(C2OCOC(C3CC(=O)NC(=O)C3)C2O)C1C (stereo not drawn)	Hs-578T	0.00629 µM (active)
Ic1ccc2c(c1)N(c1ccccc1)c1cc([N-]c3ccc4nc5ccc(I)cc5[n+](-c5ccccc5)c4c3)ccc1N2	Hs-578T	> 100 µM (inactive)

Now for the molecule whose GI50 we want.
*Q* Complete the entry with GI50 for COC(=O)C1(C)CCC(c2ccc(C)cc2)=C(CC(=O)O)C1 (stereo not drawn)
*A* > 100 µM (inactive)
